Entry source: patent US20190336489A1

biological target: CCR2 (Homo sapiens, UniProt P41597); construct: expressed in transfected cells; host or cells: CHOK1; assay: Antibody Dependent Cellular Cytotoxicity (ADCC) reporter assay, CCR2 target cells; format: cell-based; details: CHOK1 cells overexpressing CCR2; maximum signal:background (S/B)
Sequence (P41597 whole entry, species assumed): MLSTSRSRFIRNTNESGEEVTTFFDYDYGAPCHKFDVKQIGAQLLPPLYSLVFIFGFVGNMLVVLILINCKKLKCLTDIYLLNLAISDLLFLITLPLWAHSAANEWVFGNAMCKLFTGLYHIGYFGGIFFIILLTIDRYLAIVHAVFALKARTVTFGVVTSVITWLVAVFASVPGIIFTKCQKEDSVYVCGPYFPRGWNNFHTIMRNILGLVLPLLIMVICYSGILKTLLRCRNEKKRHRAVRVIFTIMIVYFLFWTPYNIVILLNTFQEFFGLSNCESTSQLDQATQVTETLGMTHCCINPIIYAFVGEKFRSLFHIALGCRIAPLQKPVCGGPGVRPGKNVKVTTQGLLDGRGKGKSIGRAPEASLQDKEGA
Marks after values point to notes of the source that are not given here.
METRIC NAME: ADCC efficacy

COMPOUND	METRIC NAME	RECORDED MEASUREMENT
Cc1ccc2c(c1)NC[C@]21CCN(C[C@@H](O)C2CCN(C(=O)c3cc4c(OCCOCCOCCOCCNC(=O)CCC(=O)NCCOCCOCCOCCNc5ccc([N+](=O)[O-])cc5[N+](=O)[O-])cccc4[nH]3)CC2)C[C@H]1C	ADCC efficacy	++^e (>5 = ++)
O=C(NCC(=O)N1CC[C@H](NC2CCC(O)(c3ccc(-c4ncccn4)cn3)CC2)C1)c1cc(OCCOCCOCCOCCOCCOCCOCCOCCOCCOCCNc2ccc([N+](=O)[O-])cc2[N+](=O)[O-])cc(C(F)(F)F)c1 (single isomer, unassigned) [Compound 16]	ADCC efficacy	++^e (>5 = ++)

---

biological target: CCR2 (Homo sapiens); construct: expressed in transfected cells; host or cells: CHOK1; experiment: Antibody Dependent Cellular Cytotoxicity (ADCC) reporter assay, CCR2 target cells; format: cell-based; conditions: CHOK1 cells overexpressing CCR2; Jurkat FcgRIIIa NFAT-luciferase reporter cells; EC50 class; read-out: ADCC potency
Each item that follows carries a reported EC50.

QUERY SMILES	EC50
Cc1ccc2c(c1)NC[C@]21CCN(C[C@@H](O)C2CCN(C(=O)c3cc4ccc(Oc5ccc(C(=O)NCCOCCOCCOCCOCCOCCOCCOCCOCCOCCNc6ccc([N+](=O)[O-])cc6[N+](=O)[O-])cc5)cc4[nH]3)CC2)C[C@H]1C	< 0.001 µM
Cc1ccc2c(c1)NC[C@]21CCN(C[C@@H](O)C2CCN(C(=O)c3cc4cc(Oc5ccc(C(=O)NCCOCCOCCOCCOCCOCCOCCOCCOCCOCCNc6ccc([N+](=O)[O-])cc6[N+](=O)[O-])cc5)ccc4[nH]3)CC2)C[C@H]1C	0.001 to 0.01 µM

The reported value for Cc1ccc2c(c1)NC[C@]21CCN(C[C@@H](O)C2CCN(C(=O)c3cc4ccc(Oc5ccc(C(=O)N6CCN(CCCNc7ccc([N+](=O)[O-])cc7[N+](=O)[O-])CC6)cc5)cc4[nH]3)CC2)C[C@H]1C in terms of EC50 is 0.001 to 0.01 µM

The reported value for Cc1ccc2c(c1)NC[C@]21CCN(C[C@@H](O)C2CCN(c3ncc(-c4cccc(C(=O)NCCOCCOCCOCCOCCOCCOCCOCCOCCOCCNc5ccc([N+](=O)[O-])cc5[N+](=O)[O-])c4)o3)CC2)C[C@H]1C in terms of EC50 is 0.01 to 0.1 µM

---

Biological target: CCR1 (Homo sapiens)
Construct: expressed in transfected cells; host or cells: CHOK1
Sequence (P32246 1-355): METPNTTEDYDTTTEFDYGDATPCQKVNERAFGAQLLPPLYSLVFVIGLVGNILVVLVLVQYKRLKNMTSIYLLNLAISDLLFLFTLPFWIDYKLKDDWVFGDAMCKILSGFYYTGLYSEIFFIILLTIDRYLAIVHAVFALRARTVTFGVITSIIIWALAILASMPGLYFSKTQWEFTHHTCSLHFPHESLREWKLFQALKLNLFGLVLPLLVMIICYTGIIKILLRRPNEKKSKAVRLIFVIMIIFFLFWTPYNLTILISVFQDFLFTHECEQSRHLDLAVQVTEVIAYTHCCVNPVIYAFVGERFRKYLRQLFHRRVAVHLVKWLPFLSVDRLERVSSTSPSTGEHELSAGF
Experiment: Antibody Dependent Cellular Cytotoxicity (ADCC) reporter assay, CCR1 target cells
Format: cell-based
Details: CHOK1 cells overexpressing CCR1; maximum signal:background (S/B)
Marks after values point to notes of the source that are not given here.

COMPOUND	ADCC efficacy
CC(C)[C@@H](NC(=O)c1cccc(C(=O)NCCOCCOCCOCCOCCNC(=O)CCCC[C@@H]2SC[C@@H]3NC(=O)N[C@@H]32)c1)C(=O)N1CCC(c2ccc(Cl)cc2)CC1 [Compound 2]	++^d (between 9-11 = ++)
CC(C)[C@@H](NC(=O)c1cccc(C(=O)NCCOCCOCCOCCOCCC(=O)NCCOCCOCCOCCOCCOCCOCCOCCOCCOCCOCCOCCNC(=O)CCCC[C@@H]2SC[C@@H]3NC(=O)N[C@@H]32)c1)C(=O)N1CCC(c2ccc(Cl)cc2)CC1 [Compound 4]	++^d (between 9-11 = ++)
CC(C)[C@@H](NC(=O)c1cccc(C(=O)NCCOCCOCCOCCOCCOCCOCCOCCNC(=O)CCCC[C@@H]2SC[C@@H]3NC(=O)N[C@@H]32)c1)C(=O)N1CCC(c2ccc(Cl)cc2)CC1 [Compound 3]	++^d (between 9-11 = ++)

---

molecular target: CCR1 (Homo sapiens, UniProt P32246); test: Antibody Dependent Cellular Cytotoxicity (ADCC) reporter assay, CCR1 target cells; settings: CHOK1 cells overexpressing CCR1; Jurkat FcgRIIIa NFAT-luciferase reporter cells; EC50 class; read-out: ADCC potency
METRIC NAME: EC50

Examples with their reported EC50 follow.
QUERY SMILES	EC50
CC(C)[C@@H](NC(=O)c1cccc(C(=O)NCCOCCOCCOCCOCCOCCOCCOCCNC(=O)CCCC[C@@H]2SC[C@@H]3NC(=O)N[C@@H]32)c1)C(=O)N1CCC(c2ccc(Cl)cc2)CC1	10 to 100 nM
CC(C)[C@@H](NC(=O)c1cccc(C(=O)NCCOCCOCCOCCOCCNC(=O)CCCC[C@@H]2SC[C@@H]3NC(=O)N[C@@H]32)c1)C(=O)N1CCC(c2ccc(Cl)cc2)CC1	100 to 1000 nM

Turning now to a further compound:
Entry CC(C)[C@@H](NC(=O)c1cccc(C(=O)NCCOCCOCCOCCOCCOCCOCCOCCOCCC(=O)NCCOCCOCCOCCOCCOCCOCCOCCOCCOCCOCCOCCNC(=O)CCCC[C@@H]2SC[C@@H]3NC(=O)N[C@@H]32)c1)C(=O)N1CCC(c2ccc(Cl)cc2)CC1 , CCR1 (Homo sapiens, UniProt P32246) data, EC50 value: 100 to 1000 nM

---

Each item that follows carries a reported EC50.
molecular target: CCR1 (Homo sapiens, UniProt P32246); assay: Antibody Dependent Cellular Cytotoxicity (ADCC) reporter assay, CCR1 target cells; settings: CHOK1 cells overexpressing CCR1; Jurkat FcgRIIIa NFAT-luciferase reporter cells; EC50 class; read-out: ADCC potency

COMPOUND	METRIC NAME	RECORDED MEASUREMENT
CC(C)[C@@H](NC(=O)c1cccc(C(=O)NCCOCCOCCOCCOCCC(=O)NCCOCCOCCOCCOCCOCCOCCOCCOCCOCCOCCOCCNC(=O)CCCC[C@@H]2SC[C@@H]3NC(=O)N[C@@H]32)c1)C(=O)N1CCC(c2ccc(Cl)cc2)CC1 [Compound 4]	EC50	100 to 1000 nM

The reported value for CC(C)[C@@H](NC(=O)c1cccc(C(=O)NCCOCCOCCOCCOCCOCCOCCOCCOCCOCCOCCOCCNC(=O)CCCC[C@@H]2SC[C@@H]3NC(=O)N[C@@H]32)c1)C(=O)N1CCC(c2ccc(Cl)cc2)CC1 [Compound 1] in terms of EC50 is 10 to 100 nM

---

Biological target: CCR3 (Homo sapiens)
Sequence (P51677 1-355): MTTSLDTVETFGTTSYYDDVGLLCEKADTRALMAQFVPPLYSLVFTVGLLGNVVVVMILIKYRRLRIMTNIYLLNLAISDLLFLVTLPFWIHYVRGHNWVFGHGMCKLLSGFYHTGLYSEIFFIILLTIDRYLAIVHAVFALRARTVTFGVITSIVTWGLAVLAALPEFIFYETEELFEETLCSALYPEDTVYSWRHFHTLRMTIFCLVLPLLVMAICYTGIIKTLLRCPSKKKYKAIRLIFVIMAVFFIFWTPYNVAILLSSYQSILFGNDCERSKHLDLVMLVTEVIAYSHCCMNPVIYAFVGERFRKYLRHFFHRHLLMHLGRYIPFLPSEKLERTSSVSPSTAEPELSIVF
Assay: Antibody Dependent Cellular Cytotoxicity (ADCC) reporter assay, CCR3 target cells
Settings: CHOK1 cells overexpressing CCR3; Jurkat FcgRIIIa NFAT-luciferase reporter cells; EC50 class; read-out: ADCC potency
METRIC NAME: EC50

Examples with their reported EC50 follow.
QUERY SMILES	TARGET SYSTEM	EC50
O=C(NCc1ccc(C(=O)NCCOCCOCCOCCOCCOCCOCCOCCOCCOCCNc2ccc([N+](=O)[O-])cc2[N+](=O)[O-])cc1)NC[C@H]1CN(Cc2ccc(Cl)c(Cl)c2)CCO1	CCR3 (Homo sapiens)	< 1 nM
O=C(NCc1ccc(C(=O)NCCCOCCOCCOCCCNC(=S)Nc2ccc(-c3c4ccc(=O)cc-4oc4cc(O)ccc34)c(C(=O)O)c2)cc1)NC[C@H]1CN(Cc2ccc(Cl)c(Cl)c2)CCO1	CCR3 (Homo sapiens)	1 to 10 nM
O=C(CCC(=O)N[C@H]1CC[C@H](NC(=O)c2ccc(CNC(=O)NC[C@H]3CN(Cc4ccc(Cl)c(Cl)c4)CCO3)cc2)CC1)NCCCOCCOCCOCCCNc1ccc([N+](=O)[O-])cc1[N+](=O)[O-]	CCR3 (Homo sapiens)	< 1 nM
CCCCN1C(=O)[C@@H]([C@H](O)C2CCCCC2)NC(=O)C12CCN(Cc1ccc(Oc3ccc(C(=O)NCCOCCOCCOCCOCCOCCOCCOCCOCCOCCNC(=S)Nc4ccc5c(c4)C(=O)OC54c5ccc(O)cc5Oc5cc(O)ccc54)cc3)cc1)CC2	CCR3 (Homo sapiens)	1 to 10 nM

Turning now to a further molecule:
The reported value for O=C(NCc1ccc(C(=O)NCCCOCCOCCOCCCNc2ccc([N+](=O)[O-])cc2[N+](=O)[O-])cc1)NC[C@@H]1CN(Cc2ccc(Cl)c(Cl)c2)CCO1 in terms of EC50 is < 1 nM
